assay overview: chemical genetic growth profiling, strain panel (AID 1159580);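 note: tested at 20 µM; growth read once vehicle control cultures reached saturation at 30 °C; 1 = growth at the plate median or of vehicle wells; lower values mean less growth of the strain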
protocol conditions: S. cerevisiae deletion strains, growth OD, locus YOL006C, strain TOP1, active compounds read low
Out of some 5,500 compounds screened, about 2,000 (36%) were called active. Not shown: some 18% with an inconclusive outcome. The list shows a part of the results.
For each entry below, report its normalized growth value.
Would you mind answering with just the numeric figure?

Exercise: Can you share its normalized growth? I mean this compound: O=C(CSCc1c(F)cccc1Cl)Nc1ccc(F)c(Cl)c1
Key: 0.953

Exercise: Can you share its normalized growth? I mean this compound: N#C/C(NCc1cccs1)=C(\C#N)NCc1c(F)cccc1Cl
Key: 1.01

Exercise: Can you share its normalized growth? I mean this compound: O=C(COc1ccc2c(c1)OCO2)N1CCN(c2ncc(C(F)(F)F)cc2Cl)CC1
Key: 0.999

Exercise: Can you share its normalized growth? I mean this compound: O=C(Nc1cc2cc([N+](=O)[O-])ccc2oc1=O)c1c(F)cccc1F
Key: 1

Exercise: Can you share its normalized growth? I mean this compound: O=C(NC1CCN(Cc2ccc(Cl)c(Cl)c2)CC1)c1ccccc1
Key: 0.683

Exercise: Can you share its normalized growth? I mean this compound: O=[N+]([O-])c1ccccc1SCc1n[nH]c(=S)n1-c1cccc(C(F)(F)F)c1
Key: 0.886

Exercise: Can you share its normalized growth? I mean this compound: COc1cc(N)c(Cl)cc1C(=O)NC1CCN(Cc2ccccc2)CC1
Key: 0.933

Exercise: Can you share its normalized growth? I mean this compound: Cc1noc(C)c1C(=O)N1CCN(c2ncc(C(F)(F)F)cc2Cl)CC1
Key: 0.99

Measured values drawn from PubChem BioAssay AID1159580 for this set.
